biological target: KCNQ2/3 (KCNQ3 subunit) (Homo sapiens, UniProt O43525+O43526); construct: human KCNQ2/3 heteromeric channel expressed in Xenopus oocytes; with KCNQ2; assay: two-electrode voltage clamp in Xenopus oocytes, dose response at -70 mV; WL/WL and RA/RA mutants insensitive
Sequence (O43525 whole entry): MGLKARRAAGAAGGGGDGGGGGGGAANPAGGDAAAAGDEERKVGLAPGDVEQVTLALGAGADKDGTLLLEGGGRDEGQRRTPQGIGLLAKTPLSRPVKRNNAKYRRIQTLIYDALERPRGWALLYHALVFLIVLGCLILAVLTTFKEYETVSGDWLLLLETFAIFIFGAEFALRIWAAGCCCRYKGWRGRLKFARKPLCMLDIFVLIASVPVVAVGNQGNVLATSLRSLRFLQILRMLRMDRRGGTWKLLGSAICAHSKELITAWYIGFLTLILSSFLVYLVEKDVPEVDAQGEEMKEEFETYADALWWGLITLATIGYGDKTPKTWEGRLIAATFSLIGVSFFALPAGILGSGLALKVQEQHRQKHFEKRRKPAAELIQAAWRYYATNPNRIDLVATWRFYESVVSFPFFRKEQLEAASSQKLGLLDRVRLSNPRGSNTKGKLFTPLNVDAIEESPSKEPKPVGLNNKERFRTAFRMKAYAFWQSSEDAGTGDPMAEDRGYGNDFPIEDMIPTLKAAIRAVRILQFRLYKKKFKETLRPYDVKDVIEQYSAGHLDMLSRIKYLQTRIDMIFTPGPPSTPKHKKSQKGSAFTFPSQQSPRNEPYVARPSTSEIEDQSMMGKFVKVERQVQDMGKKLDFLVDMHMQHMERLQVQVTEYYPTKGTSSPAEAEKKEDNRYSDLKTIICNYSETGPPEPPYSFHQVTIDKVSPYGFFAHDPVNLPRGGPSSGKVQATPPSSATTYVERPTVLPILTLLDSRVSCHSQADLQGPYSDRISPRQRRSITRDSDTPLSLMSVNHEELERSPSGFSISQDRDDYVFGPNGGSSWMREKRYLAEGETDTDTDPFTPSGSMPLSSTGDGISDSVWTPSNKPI
Sequence (O43526 whole entry): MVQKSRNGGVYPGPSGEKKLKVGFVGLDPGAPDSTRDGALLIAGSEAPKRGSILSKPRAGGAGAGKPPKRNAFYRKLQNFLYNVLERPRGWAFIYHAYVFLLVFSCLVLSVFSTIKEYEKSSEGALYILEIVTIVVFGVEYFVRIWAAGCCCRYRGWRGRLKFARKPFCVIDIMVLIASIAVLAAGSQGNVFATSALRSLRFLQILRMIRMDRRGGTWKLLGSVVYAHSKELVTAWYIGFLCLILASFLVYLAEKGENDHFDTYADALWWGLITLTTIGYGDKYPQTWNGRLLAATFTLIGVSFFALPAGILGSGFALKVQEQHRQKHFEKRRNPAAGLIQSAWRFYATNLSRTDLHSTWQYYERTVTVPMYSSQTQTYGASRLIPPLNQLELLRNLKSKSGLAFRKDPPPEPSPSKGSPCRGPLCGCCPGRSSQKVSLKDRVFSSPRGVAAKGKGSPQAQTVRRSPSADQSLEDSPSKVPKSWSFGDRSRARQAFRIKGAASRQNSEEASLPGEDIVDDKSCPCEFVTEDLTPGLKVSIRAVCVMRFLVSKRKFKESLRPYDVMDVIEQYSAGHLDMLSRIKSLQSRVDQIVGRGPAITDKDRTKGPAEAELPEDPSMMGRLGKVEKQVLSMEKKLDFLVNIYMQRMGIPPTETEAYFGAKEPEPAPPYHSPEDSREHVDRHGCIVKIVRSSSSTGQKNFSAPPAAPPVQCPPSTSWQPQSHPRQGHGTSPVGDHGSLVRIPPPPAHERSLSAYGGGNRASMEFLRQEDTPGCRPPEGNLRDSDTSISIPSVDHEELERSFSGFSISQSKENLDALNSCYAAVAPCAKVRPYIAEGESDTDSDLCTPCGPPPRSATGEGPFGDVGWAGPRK
metric: EC50 (nM)
Reply numerically in nM, unit not repeated.

Incoming: Given the compound O=C(O)c1cc(O)c(O)c(O)c1 [gallic acid] , write its reported EC50.
Outgoing: 560
